Just for reference, patent US20230265192A1 is where these values come from.

# system.tested: T1, human CTLA-4 expressed on the cell surface (human, UniProt P16410 36-223)
# T1 construct: CHO cells stably expressing human CTLA-4; also called hCTLA-4; CTLA-4+ CHO cells
# experiment: flow cytometry, 10 µg/mL mAb, geometric MFI
test.readout: MFI of CTLA-4+ CHO cells
Could you keep your reply to the number by itself?

Quick check: MFI of CTLA-4+ CHO cells of antibody A5 (L5H5) (antibody, V domains shown, also called aCTLA-4.28; CTLA4.A5) VH: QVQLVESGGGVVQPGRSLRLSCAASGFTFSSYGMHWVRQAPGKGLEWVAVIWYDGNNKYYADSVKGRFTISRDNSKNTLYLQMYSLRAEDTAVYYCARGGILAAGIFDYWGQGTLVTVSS VL: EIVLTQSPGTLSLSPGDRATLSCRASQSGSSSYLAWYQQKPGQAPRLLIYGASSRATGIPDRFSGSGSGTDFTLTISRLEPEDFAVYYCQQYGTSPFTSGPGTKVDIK ? 1030
